// provenance: the domain aggregation screens of Martell et al. (2025)

- Assay details: soluble fraction after stress (log2 fold change); higher = more stays soluble; pooled small domains, quantitative proteomics
- Condition info: stress: pH 4

| Residues | Result modifier | soluble fraction (log2) |
| --- | --- | --- |
| HMETYSGVERAAILVMYLERTLAKALLDHMNDEEVRRVGMAMASIDRVEGPDIERIVGDFVRELYEVS | = | -0.857 |
| HMVNYKEILRLAHEGYSQRQIATNIGNSRNTVSEVLDAAKAANIAWPPEETVTNEQLGAILFPNRH | ≥ | 0.43 |
| HMQVSEQVQRLLDALENDTLTTKELMDRLGLKHRPTFRKNYLLPSMKLGLVEMTIPDKPNSSRQKYRRRQ | = | 0.00707 |
| HMKINVQETEVYRYLLERADRLYSMILGEERENLMERTRFFEKEVAKASLPHLPKLYDEFSIYLDRLERG | = | -0.555 |
| HMEVVELTDDEKMILATLHDGPVEIGHIKQVVGLSGKKWDAATKSLRQKGLINVVLENEQKLMVK | = | -0.0453 |
| HMTDVRFIDIPVTEHHPWNGMKVRDLQLPPGTLLVFLSHPGEKNTVPHGETVLRSGDVLVLGATAYTGQ | = | -0.681 |
| HMVDIIMDLLEAVAQARPADAFIKSLHIQYQERGGLSKKQLQGLYGKAAKTAGIPPGKLATLEAIILKRP | = | -0.0377 |
| HMGDLLTVDRVAATSGLGVDTIRYYQRLGLLDPPVRHGRRALYSTAHLDRLVEIRQLADEGFSLAQIATL | = | -0.816 |
| HMLSDADLAAFREVFDLVDKDKSGAIEMEEVEELTKLLGLDLTRDEVELLVREIDKDGNGEVDFEEFLLVM | = | -0.115 |
| HMGEVPPGWSVEALAAIERDLAHHVGPVARVLVQRGARLHTTTDDLRSALANAITDDLARRRFMQP | = | -0.635 |
| HMTVVIKVQASQLESWKSSAGTEIKAKLIAVEDEKTYLFVTETGKTIRATAAQLDESSVSRARKLAGL | = | -0.514 |
| HMAGDVVVEVVGKVRDPQVVTLPKGSRVQDALEAAGGVKPGVNTTDQNLARLLVDGEQIRIGLSS | = | 0.0302 |
| HMKHRTQMDIQQLPAIEGKGGFEYKISIIHLSTRIKYSEIHDNYNTTTIAKVYENAIERLPPF | = | -1.13 |
| HMQKAQEYILVDIKGEVQTPGVYKLPVNSRVIDAIEASGGLTKKAVTTYINLSKTLKDENVIIINKKSEL | = | -0.0717 |
| HMQWLDSIRSRLRVGQTISYFEPRENASSSGLIIELRRKRVLVLEIATQKRWLIEYAAINVDG | = | -0.325 |
| HMLTTIRKATVNDKTRIMEIYAYARQFMAEHGNPNQWKNNNPSEETIDNDIAKQEMYVIETDGEVHAVFY | = | -1.42 |
| HMEITTEDIAAQVASWIVRLSEDLTSTDRAALQIEFEQWQQTDSRRAEIAHKMLSLIGQAEQLRKT | = | -0.614 |

---

- Assay details: soluble fraction after stress (log2 fold change); higher = more stays soluble; pooled small domains, quantitative proteomics
- Condition info: stress: pH 4

| Residues | soluble fraction (log2) |
| --- | --- |
| HMGRLEVDLVVPYDKYEAMNVIRAEGRILKEDHQGDGAHLKIQINETALWKLKRMLGEGYGQ | -0.255 |
| HMRNMTDYLTIVRAVYGGLSQRQAATTYHVSRNTVSLLIRHAKNQGWLTVEDLSRADAAAFSPA | -0.0738 |
| HMTGESVPAPLSGTIFKILVAPGEQVEEGQTVIILEAMKMETEISAPRSGVVGAINIKEGDSVQVGQSLFT | 0.104 |
| HMSGAQIQQLLESRAPQPGMNPDMIVRRKTYMNNVFNALKGALLRVANGSSPEEVKTEVDAAIQVDPDKL | -0.151 |
| HMGDRRSVFEQSVLDAIKSLVKQGELATTKAISDHIGTNYQGNVSRAITALLADNKIKKLPKEGVLQPYEA | -0.00881 |
| HMGNKKLVLKLSKKLIKIPSFLNIYSVKLTKNGRELEINLDKSQNEAIDIINLIKKNNISFLEFDIKKR | 0.015 |
| HMDFDVELTSAGTAKVKVIKAVREATGLGLKEAKDLVDNAPSIVKEGLDEAAANDLKAALEETGASVTL | 0.239 |
| HMDQINNDLRKLIEFLPEDQKTVLKMRHFQEMSFKEIAKATGVSINTALGRMRYALINLRKLIEENEI | -0.903 |
| HMDLKTNSQLINELEKKIKRPFDREIKNYLNKNLSTDRMISNNEIDKIILFYSGNNEIPNIEKISLILNDN | 0.0193 |
| HMLMRKAEVGVESLNLRHGPGTQYKVLEILPGGKSLHYLAEPRRGWVRVTTEEGTTGWTFLKFLKPE | -0.0205 |
| HMEANPLTDREKEVLELVADGKNTKEIAQELSIKSGTVRNYISMILEKLEVKNRIEAITRSKEKGWF | -0.025 |
| HMEFSYMDQGLERYRAFLETHGHGNVPESYHELKLVNFVAHIRKLYRMNLLSEERRRALDEAGFVF | -1.24 |
| HMENMSFGTKLYTWLYGKLVGSDEIGNKYYTNINDPSDLNAKRWVIFNGEIEASKIPPHWHAWLHKSIDK | -0.265 |
| HMVVLPPTEDAPEWAQVFDRLGRPESADGYKLPVPEGADPAFAKLASAKMHELGLSAKQGAALAAWWNEQA | -0.332 |
| HMTDFLKTRIDTLGLSTRTLNALSEANVRTIGGIARKKQEDLLEIDGIGEKGIQEIKKMLGEYGITL | -0.52 |
| HMTTIAQMTGPQRAAVILLVLGEDHGRTIWQEFDDDEIRIITRAMAELGTVDADEVERLMLDFVGKLSS | -1.75 |
| HMDYIITHYPDNKRFETQVDGVVAFVQYRLSGDKLDIIHTIVPPAIGGRGIAAALVKYAYDYAIENGMK | -0.666 |

---

Quick reference: soluble fraction (log2) of the listed items.
- Assay details: soluble fraction after stress (log2 fold change); higher = more stays soluble; pooled small domains, quantitative proteomics
- Condition info: stress: pH 4

| Residues | soluble fraction (log2) |
| --- | --- |
| HMADGTSIYAEREVLYVTSPTANTAKVYNVSGALVRTMTLSAGQTVRTALPAGFYVVALGNGNTHKVIV | 0.0275 |
| HMGSDAFDISKLNLVGKTKESAESLLKENGFSVDTKEEASDTAAKGTVISYSPTKPKNGERVTLTVSSGK | 0.243 |
| HMSDFDPTLILDLIKGSGEALTKREIARALGIKGGDKRIELKSHLKSMEAEGVIVKQAGGAYSVP | -0.00302 |
| HMEVSEGEIREKVESVFSSNPRQAYNYKQISKKLNINDKSERQIVWDVLRKLAGSGKIQEVEHGRFRARAE | -0.0385 |
| HMTKQMELLAQGAAKLSVDLNQRQLDQLQTYYRELVDWNQRMNLTAITQYEEVQVKHFLDSL | -0.294 |
| HMDSVPEEQLRQLALDKAKEVKRWGQPVELAKMNAHDRRIIHINLQDDPEIETRSEGEGALKSVIISLKK | 0.135 |
| HMLEYIEPRTAVQIHGIKAKPELNGKRGMVMGYAPERMRYRVRIDVGEGTGGKESEEVYLKPENVIAVK | 0.101 |
| HMLEVTQTDVKMYTTSGTPVYAAPDLNSAIVVYLERFVNVTVTGITDNGFYRVNLNGDYYIPGPYLISSV | -0.759 |
| HMRTEGNLGAKVRVLRRSQGMTQAELARRLGISPSYLNLIEHNRRSFTADLLVKLAKILPVNLKT | 0.04 |
| HMKYSNDEVERDLYVRGVIYQIGDLVENKLDGTSGEVVRRGPNYVQYTDGENFYKAFLSALQEQK | -1.04 |
| HMELSVTDRTRQIRHILKEKGRVEFTSLFEELTKPYVIVTFLSVLEMSKNNELMITQDKTFGSITLEMKG | -0.383 |
| HMPHFFISTSDVNQDIITVSDKENFHHIARVLRSKVGETLLLVDENRTQYKVVIQNIDSKSITTKVVETLK | -0.697 |
| HMIERLVEFVHTLRHSGVRVSMAEAMDAAEALRHTPITERQIFKTALQSVLVKEHQDIPAFDAAFERFFL | -0.728 |
| HMADTPQAYIRQMVQEAGADGIMLSTITDRLRARFKDFKVRDLGYAQMRQYMASTGTYDLEKSGRNFRVHL | 0.181 |
| HMGEIVVPDLIGKSLTEATRILSDSTLTVGKVNYQISSTLLPNTVLDQYPAPGNKLNSGNTVDLFITKE | -0.0586 |
| HMDADGEPIKLDQIGISHLSFTVADVKSLGEELVAKGVKLAAPMEAFTSPEGRISSIFVYDPDGILLQFDD | -0.123 |
| HMHHDQQQITAELARIARNGLPGLTADNAIISRLDALNLLINIHDDRGADATPLRGLLPAIADELLRLT | 0.0087 |
| HMYSFPHQLLKLRTEKQLSQAELATRLFVSRQAVSKWENGDAEPSIDKLILLAKVFNVSLDRLILGT | 0.18 |
| HMQKLKINKYKDPKGEIRYYIASTIRNGNKSSTHNLLSLGKHSDLLKEHSDVEAYLKERLNEAMESGI | 0.307 |
| HMKPVPPLNGTSLRDLALGYAGRYATTAARLKHYLQRKLRERGWGGEDEPDLDGLVARLVELGYVNDEVF | -0.723 |
| HMKRTLLLEGRTIPYELTQKPVKNINIRVHADGSVRVSAGPWVSPEAVDAVLRQRSAFLLRALDQFAAQAP | -0.923 |
| HMASVAKHIRRLRTERHMTQGDLAEKLFVTRQTVSAWETGKAQPDLETLERIAVVLGVEVTELIYGAP | -0.537 |
| HMSNRIDKIKLNHWLNIRKTSLDVLNNLLSKHLNHKINFENLENLDEQAIEKISEVLSIPKNKLLINDDVP | -0.226 |
| HMDPDARQDAEVWLLDFLSAGPRTAQEIFTAARVEGHTRVTVKRAKATAGIQSVKQDFDGPWVWVLPGSG | -0.932 |
| HMLEQEDMYGYQMIETLRERSEHSFDLKAGTLYPLLHALEQKGLITARDEASAAGRPRRYYHLTDAG | -1.05 |
| HMPSHALFWTLLKEVPGYDPHYKDVIKEGIVHEHSGGRTTSLSEMYTKYPREYSLMIEAMKG | -0.326 |
| HMLGDAWSMLILRDAHSGFSRFDQFRKSLGIAPTMLTKRLSVLVDEGLLEKRQYSEHPPREEYVLTQAGQD | 0.149 |
| HMKSLLSRREQEVLELVSRGFSYSEIAELKNLSVHTIQTHIKSLYGKLEVHSKMEAVLEATRMGLLPQ | -1.12 |
| HMTIRIPEEEYLTRAKRAAQMTAERGLDALFLFGSEGDFQNVRYFTSVTPIWERLGVVITASGKAAMLTGP | -0.0548 |
| HMDDPITVAYRETEDAIAQVQREGFPVEMPPANSYIRRIQHELAGRFNLDSESYGDEPERRVRIRPQQ | -0.92 |
| HMPFNREYWIEQLLKEVGLMGTPYAELDKHEVELDSPTGRASGFKVNAKTYVDQQLLFIENEYNNQPE | -0.899 |
| HMNKKLEMKIEQLDLSVRLFNSLKRSGIYTVAQIIKLTEEDVMRFRSLGRKSFKELKEKLSEHGLEFE | -1.02 |
| HMDSHSAESVRQRIKDMIAAEASKSILSDDTIVENLKSEGIEIARRTVAKYRESLNIPSSIQRRRIARSEA | 0.0843 |
